Entry source: PubChem BioAssay (NCI)

Tested on: SK-MEL-28 melanoma
Assay: NCI-60 one-dose screen, 48 h (100 = growth as untreated, 0 = no growth, -100 = all killed)
Details: 10 µM unless noted
The panel holds about 83,000 compounds, 20% with a hit somewhere; the sample as a whole holds those more often.
Each record here notes measured growth.
Parameter measured: growth (%)

[[record]]
molecule = "COc1ccc(C(=O)/C=C/c2ccccc2Cl)cc1S(N)(=O)=O"
study_system = "SK-MEL-28 melanoma"
measured = 103

[[record]]
molecule = "C[C@H](Nc1nc(NCCc2ccccc2)nc2ccccc12)c1ccccc1"
study_system = "SK-MEL-28 melanoma"
measured = -98.5

[[record]]
molecule = "O=C(/C=C/c1cccc(OCc2ccc(F)cc2)c1)c1nc2ccccc2[nH]1"
study_system = "SK-MEL-28 melanoma"
measured = 104

[[record]]
molecule = "CC12CC[C@@H]3[C@]4(C)COC(c5cn[nH]c5-c5cccc(Br)c5)O[C@@H]4CC[C@@]3(C)[C@@H]1CC(C1=CCOC1=O)O2 (stereo not given in full)"
study_system = "SK-MEL-28 melanoma"
measured = 34

[[record]]
molecule = "CC(=O)c1c(N)c(C#N)cn1-c1ccc(Cl)cc1Cl"
study_system = "SK-MEL-28 melanoma"
measured = 106

